Origin of values: patent US9006450B2

# subject of test: human ACC2 (Homo sapiens)
# Construct: made in house; host or cells: insect cells (baculoviral expression system)
# Sequence (O00763 129-2458 limits assumed): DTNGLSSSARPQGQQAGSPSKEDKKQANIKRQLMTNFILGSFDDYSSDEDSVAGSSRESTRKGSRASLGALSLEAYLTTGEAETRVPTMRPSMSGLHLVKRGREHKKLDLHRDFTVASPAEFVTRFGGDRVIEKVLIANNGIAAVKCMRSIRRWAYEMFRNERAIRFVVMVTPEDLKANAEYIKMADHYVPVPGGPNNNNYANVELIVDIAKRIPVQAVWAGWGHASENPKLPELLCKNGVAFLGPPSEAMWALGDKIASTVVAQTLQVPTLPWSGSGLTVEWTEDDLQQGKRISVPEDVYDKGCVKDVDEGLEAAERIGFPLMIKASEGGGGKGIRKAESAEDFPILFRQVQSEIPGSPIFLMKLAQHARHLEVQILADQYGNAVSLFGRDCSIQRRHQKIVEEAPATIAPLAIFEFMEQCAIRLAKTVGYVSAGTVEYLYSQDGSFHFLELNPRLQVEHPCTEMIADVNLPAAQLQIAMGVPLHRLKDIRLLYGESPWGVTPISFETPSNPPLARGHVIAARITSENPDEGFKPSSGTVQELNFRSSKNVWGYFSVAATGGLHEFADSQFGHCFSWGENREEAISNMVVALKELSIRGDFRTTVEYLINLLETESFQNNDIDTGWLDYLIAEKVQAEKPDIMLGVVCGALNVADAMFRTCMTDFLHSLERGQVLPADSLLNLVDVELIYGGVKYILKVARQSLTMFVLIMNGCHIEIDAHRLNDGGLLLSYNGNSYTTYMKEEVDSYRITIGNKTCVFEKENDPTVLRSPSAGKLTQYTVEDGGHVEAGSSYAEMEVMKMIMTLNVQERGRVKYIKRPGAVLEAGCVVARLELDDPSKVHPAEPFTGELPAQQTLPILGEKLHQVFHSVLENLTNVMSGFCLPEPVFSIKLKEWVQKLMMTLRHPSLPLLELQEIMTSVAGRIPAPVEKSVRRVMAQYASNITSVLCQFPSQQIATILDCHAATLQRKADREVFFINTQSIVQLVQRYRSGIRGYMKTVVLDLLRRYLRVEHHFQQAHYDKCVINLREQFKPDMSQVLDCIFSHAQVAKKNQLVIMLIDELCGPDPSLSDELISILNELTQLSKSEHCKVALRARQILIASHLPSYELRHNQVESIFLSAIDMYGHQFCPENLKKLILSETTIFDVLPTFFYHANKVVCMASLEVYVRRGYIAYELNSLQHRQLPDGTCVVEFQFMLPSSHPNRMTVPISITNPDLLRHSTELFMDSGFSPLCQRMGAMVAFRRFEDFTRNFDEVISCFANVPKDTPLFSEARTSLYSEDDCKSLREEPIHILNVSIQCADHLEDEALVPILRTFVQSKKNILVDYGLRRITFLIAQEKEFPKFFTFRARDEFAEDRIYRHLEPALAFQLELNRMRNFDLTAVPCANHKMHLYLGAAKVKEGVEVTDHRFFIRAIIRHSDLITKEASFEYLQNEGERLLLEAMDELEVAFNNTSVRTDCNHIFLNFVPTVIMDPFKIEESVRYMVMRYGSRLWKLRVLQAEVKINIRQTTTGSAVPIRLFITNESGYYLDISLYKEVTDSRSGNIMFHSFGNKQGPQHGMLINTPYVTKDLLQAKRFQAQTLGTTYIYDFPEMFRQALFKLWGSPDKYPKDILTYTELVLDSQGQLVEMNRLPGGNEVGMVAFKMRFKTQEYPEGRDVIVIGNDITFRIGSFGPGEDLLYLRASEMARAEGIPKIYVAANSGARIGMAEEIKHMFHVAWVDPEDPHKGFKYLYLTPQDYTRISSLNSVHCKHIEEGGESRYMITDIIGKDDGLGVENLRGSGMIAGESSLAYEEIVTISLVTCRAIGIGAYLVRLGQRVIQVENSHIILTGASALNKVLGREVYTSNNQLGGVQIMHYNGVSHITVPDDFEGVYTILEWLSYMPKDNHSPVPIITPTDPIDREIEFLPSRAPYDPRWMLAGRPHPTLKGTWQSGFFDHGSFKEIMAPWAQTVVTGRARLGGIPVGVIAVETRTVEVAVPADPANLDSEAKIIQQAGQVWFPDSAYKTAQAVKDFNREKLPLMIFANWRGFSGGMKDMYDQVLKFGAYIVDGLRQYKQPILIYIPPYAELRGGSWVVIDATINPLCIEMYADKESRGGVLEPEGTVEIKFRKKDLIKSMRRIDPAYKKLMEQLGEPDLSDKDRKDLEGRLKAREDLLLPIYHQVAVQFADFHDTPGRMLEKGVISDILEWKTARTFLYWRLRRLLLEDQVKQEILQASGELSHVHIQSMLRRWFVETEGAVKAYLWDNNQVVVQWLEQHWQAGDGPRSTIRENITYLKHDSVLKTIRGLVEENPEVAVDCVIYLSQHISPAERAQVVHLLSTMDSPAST
# test name: ACC2 assay, spectrophotometric 384 well assay (NADH-linked, coupled lactate dehydrogenase/pyruvate kinase)
# Type: biochemical
# reported conditions: ACC2 assay, hACC2 construct lacking 128 N-terminal amino acids, 25° C., 340 nm; read-out: IC50
pIC50: −log10 of the molar value.
assay readout: pIC50

smiles text	observed measurement
CC(=O)N[C@@H](C)c1ccc(C2CCN(c3ncc(OC(C)C)cn3)CC2)cc1	6.51

I: CC(=O)N[C@@H](C)c1ccc(C2CCN(c3ncc(-c4cc5ccccc5[nH]4)cn3)CC2)cc1
II: CC(=O)N[C@@H](C)c1ccc(C2CCN(c3ncc(-c4cnccc4C)cn3)CC2)cc1
III: CCOc1ccc(N2CCC(c3ccc([C@H](C)NC(=O)C(F)(F)F)cc3)CC2)cc1
*Q* // smallest pIC50 at index 0, largest at the end Please list the labels according to the requested order.
*A* II, I, III
